Data origin, for the record: patent US11370774B2

Below: a set of entries, each annotated with reported IC50.
# Experimental target: Factor D (Homo sapiens (Human), UniProt P00746)
# Sequence (P00746 26-253): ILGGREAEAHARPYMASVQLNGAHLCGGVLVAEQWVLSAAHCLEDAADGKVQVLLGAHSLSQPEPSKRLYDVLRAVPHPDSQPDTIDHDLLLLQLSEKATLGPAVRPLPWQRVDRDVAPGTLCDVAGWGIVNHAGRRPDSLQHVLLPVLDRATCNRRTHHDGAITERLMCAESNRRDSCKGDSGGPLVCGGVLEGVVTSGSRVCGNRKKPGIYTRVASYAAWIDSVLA
# Experiment notes: Factor D esterolytic assay (Z-Lys-SBzl substrate, DTNB, 405 nm)
# Type: biochemical
# Measurement parameters: Z-Lys-SBzl 1.29 mM, pH 7.5, 10% DMSO, tested a minimum of three times, read-out: Measured Ki (IC50) Value for Compounds: IC50

Below, each entry is followed by its recorded IC50 result.
# Compound, Experimental target, IC50
records = [
    ("N[C@@H](c1cc(-c2cc(COc3ccccc3CC(=O)O)cc3ccoc23)ccn1)C(F)(F)F [Compound 381e]", "Factor D (Homo sapiens (Human), UniProt P00746)", "> 10000 nM"),
    ("COc1ccc(CC(=O)O)c(OCc2cc(-c3ccnc(CN)c3F)c3occc3c2)c1 [Compound 464d]", "Factor D (Homo sapiens (Human), UniProt P00746)", "< 1000 nM"),
    ("Nc1nccc2ccc(-c3cc(COc4ccccc4CC(=O)O)cc4ccoc34)cc12 [Compound 87c]", "Factor D (Homo sapiens (Human), UniProt P00746)", "> 10000 nM"),
]

Param item = NCc1ccnc(-c2cc(COc3ccccc3CC(=O)O)cc3ccoc23)c1 [Compound 110c] ; retrieve measured IC50.
< 1000 nM

Using the record for NCc1cc(-c2cc(COc3ccccc3CC(=O)O)cc3ccoc23)ccc1F [Compound 60c] , report its IC50.
< 1000 nM

Recorded IC50 of NCc1cccc(-c2cc(CC(=O)N3CCC[C@H]3C(=O)NCc3cccc(Cl)c3F)cc3ccoc23)c1 [Compound 277e] , please.
< 1000 nM

Consider the compound NCc1cccc(-c2cc(COc3ccccc3CC(=O)O)cc3oc(Cl)cc23)c1 [Compound 225h] and give its measured IC50.
< 1000 nM

For the compound NCc1cccc(-c2cc(COc3cc4occc4cc3CC(=O)O)cc3ccoc23)c1 [Compound 298f] , what IC50 is on record?
< 1000 nM

----------
Listed here: compounds with reported IC50 for Factor D (Homo sapiens (Human), UniProt P00746).

# Compound, IC50
measured = [
    ("NCc1cccc(-c2cc(COc3cc(F)ccc3CC(=O)O)cc3cc(F)oc23)c1F [Compound 521b]", "< 1000 nM"),
    ("Cn1ccc(NCc2cc3cc(COc4ccccc4CC(=O)O)cc(-c4cccc(CN)c4)c3o2)n1 [Compound 372c]", "< 1000 nM"),
    ("NCc1cccc(-c2cc(COc3ccccc3CC(=O)O)cc3cc(CO)oc23)c1F [Compound 94c]", "< 1000 nM"),
]

Look up IC50 with Factor D (Homo sapiens (Human), UniProt P00746) for this compound: Cc1c[nH]c2cc(C(=O)Nc3ccccc3CC(=O)O)cc(-c3cccc(CN)c3)c12 [Compound 81d]
> 10000 nM

----------
# Experimental target: Factor D (Homo sapiens (Human))
# Experiment notes: Factor D esterolytic assay (Z-Lys-SBzl substrate, DTNB, 405 nm)
# Format: biochemical
# Measurement parameters: Z-Lys-SBzl 1.29 mM, pH 7.5, 10% DMSO, tested a minimum of three times, read-out: Measured Ki (IC50) Value for Compounds: IC50
Recorded IC50 values for a group of compounds are listed next.

// worked examples, IC50 included
# Compound, IC50
records = [
    ("COc1ccc(OCc2cc(-c3cccc(CN)c3)c3ccn(C(C)C)c3c2)c(CC(=O)O)c1 [Compound 493b]", "< 1000 nM"),
    ("NCc1cccc(-c2cc(N(Cc3ccccc3CC(=O)O)C(=O)OCc3ccccc3)cc3ccoc23)c1 [Compound 404c]", "< 1000 nM"),
    ("NCc1cccc(-c2cc(C(=O)Nc3ccccc3CC(=O)O)cc3cc[nH]c23)c1 [Compound 158c]", "1000 to 10000 nM"),
]

So what does the record say about IC50 for COCc1cc2cc(COc3ccccc3CC(=O)O)cc(-c3cccc(C(N)CF)c3)c2o1 (single isomer, unassigned; (+)) [Compound 278e] ?
< 1000 nM

Form field: reported IC50 of CCOC(=O)Cc1ccccc1NC(=O)c1cc(-c2cccc(CN)c2)c2cc[nH]c2n1 [Compound 14c]
> 10000 nM

Requested field: IC50. Item: C[C@@H](N)c1cccc(-c2cc(COc3ccccc3CC(=O)O)cc3ccoc23)c1 [Compound 78c]
< 1000 nM

Give its IC50 value. Item: Nc1noc2c(-c3cc(COc4ccccc4CC(=O)O)cc4ccoc34)cccc12 [Compound 180e]
< 1000 nM
